Biological target: G-protein coupled receptor 55 (Homo sapiens)
Sequence (Q9Y2T6 whole entry): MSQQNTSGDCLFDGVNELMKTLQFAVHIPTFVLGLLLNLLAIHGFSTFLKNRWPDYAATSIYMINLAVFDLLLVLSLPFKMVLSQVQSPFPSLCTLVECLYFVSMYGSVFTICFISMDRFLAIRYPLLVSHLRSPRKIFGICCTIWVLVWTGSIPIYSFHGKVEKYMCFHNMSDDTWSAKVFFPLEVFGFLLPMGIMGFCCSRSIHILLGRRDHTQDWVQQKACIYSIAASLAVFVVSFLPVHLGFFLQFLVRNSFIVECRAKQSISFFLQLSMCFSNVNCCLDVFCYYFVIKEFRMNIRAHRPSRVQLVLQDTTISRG
Experiment: Antagonist activity at Prolink1-tagged human GPR55 receptor expressed in CHO cells assessed as inhibition of lysophosphatidylinositol-induced beta arrestin recruitment at 10 uM after 90 mins by beta-galactosidase based topcount luminescence analysis relative to control
Format: functional, cell-based
OUTCOME_MEASURE: inhibition

STRUCTURE_SMILES_STRING	RESULT
CCN(CC)CCN1CCCn2c1nc1c2c(=O)n(C)c(=O)n1C	-3%
Cn1c(=O)c2c(nc3n2CCCN3CCc2c[nH]c3ccccc23)n(C)c1=O	20%
CCCn1c(=O)c2c(nc3n2CCCN3CCc2c[nH]c3ccccc23)n(CCC)c1=O	-4%
CCN1CCCn2c1nc1c2c(=O)n(C)c(=O)n1C	17%
C=C(C)[C@@H]1CCC(C)=C[C@H]1c1c(O)cc(O)cc1CCCCC	33%
COc1ccc(CCN2CCCn3c2nc2c3c(=O)n(C)c(=O)n2C)cc1OC	32%
CCCCN1CCCn2c1nc1c2c(=O)n(C)c(=O)n1C	34%
